Would you kindly list APOE RNA (% UTC) 512 nM for each of these substances?
system: human APOE RNA; assay: Dose-dependent inhibition of human APOE RNA in HepG2 cells, electroporation, 50,000 cells per well, RT-PCR normalized to GAPDH (Example 4, Tables 8-10); type: cell-based; conditions: HepG2 cells, electroporation, 24-hour treatment, 512 nM, Table 8
Strand notation (5' to 3'): a small letter for the sugar, then the base; units joined by * are phosphorothioate-linked, units joined directly phosphodiester-linked; [ ] holds rarer units or linkages, { } end groups; capitals alone tell only the bases. [ms] = mesyl phosphoramidate linkage; e = 2'-O-(2-methoxyethyl) (MOE); k = constrained ethyl (cEt); [5mC] = 5-methylcytosine; d = 2'-deoxy (DNA)
# output: number + unit

# input // fetch human APOE RNA APOE RNA (% UTC) 512 nM for 1778154: modified oligonucleotide complementary to human APOE RNA (e[5mC]*eT*eTeGeGeT*dG[ms]dA[ms]dA*dT*d[5mC]*dT*dT*dT*dA*dT*kTkAeA*eA; antisense) [compound 1778154]
# output 58 % UTC

# input // fetch human APOE RNA APOE RNA (% UTC) 512 nM for 1778131: modified oligonucleotide complementary to human APOE RNA (eA*e[5mC]eTeTeGkG*dT*dG[ms]dA[ms]dA*dT*d[5mC]*dT*dT*dT*dA[ms]kTkT*eA*eA; antisense) [compound 1778131]
# output 50 % UTC

# input // fetch human APOE RNA APOE RNA (% UTC) 512 nM for 1778123: modified oligonucleotide complementary to human APOE RNA (eA*e[5mC]eTeTeG*eG*dT*dG[ms]dA[ms]dA*dT*d[5mC]*dT*dT*dT*dA[ms]kTkT*eA*eA; antisense) [compound 1778123]
# output 51 % UTC

# input // fetch human APOE RNA APOE RNA (% UTC) 512 nM for 1778111: modified oligonucleotide complementary to human APOE RNA (eA*e[5mC]eTeTeG*kG*dT*dG[ms]dA[ms]dA*dT*d[5mC]*dT*dT*dT*dA[ms]eTeT*eA*eA; antisense) [compound 1778111]
# output 44 % UTC

# input // fetch human APOE RNA APOE RNA (% UTC) 512 nM for 1785601: modified oligonucleotide complementary to human APOE RNA (k[5mC]*kT*kT*dG[ms]dG[ms]dT[ms]dG*dA[ms]dA[ms]dT*d[5mC]*dT*dT*dT*dA[ms]dT*kT*kA*dA[ms]kA; antisense) [compound 1785601]
# output 36 % UTC

# input // fetch human APOE RNA APOE RNA (% UTC) 512 nM for 1785604: modified oligonucleotide complementary to human APOE RNA (k[5mC]*dT[ms]dT[ms]kG*dG[ms]kT*dG[ms]dA[ms]dA*dT*d[5mC]*dT*dT*dT*dA*dT*kT*kA*dA[ms]kA; antisense) [compound 1785604]
# output 47 % UTC

# input // fetch human APOE RNA APOE RNA (% UTC) 512 nM for 1785617: modified oligonucleotide complementary to human APOE RNA (k[5mC]*dT[ms]dT[ms]kG*dG[ms]kT*dG[ms]dA[ms]dA[ms]dT[ms]d[5mC]*dT*dT*dT*dA*dT*kT*kA*dA[ms]kA; antisense) [compound 1785617]
# output 50 % UTC

# input // fetch human APOE RNA APOE RNA (% UTC) 512 nM for 1785598: modified oligonucleotide complementary to human APOE RNA (k[5mC]*kT*kT*dG[ms]dG[ms]dT[ms]dG[ms]dA[ms]dA[ms]dT*d[5mC]*dT*dT*dT*dA*dT[ms]kT*kA*dA[ms]kA; antisense) [compound 1785598]
# output 73 % UTC

---

system: human APOE RNA; test: Activity in APOE C57BL/6NTac-Apoeem7250 knock-in mice, single ICV bolus, 16 weeks (Example 12); type: in vivo; settings: spinal cord; single ICV bolus 300 μg; 16 weeks post treatment; normalized to mouse Ppia
Strand notation (5' to 3'): a small letter for the sugar, then the base; units joined by * are phosphorothioate-linked, units joined directly phosphodiester-linked; [ ] holds rarer units or linkages, { } end groups; capitals alone tell only the bases. [ms] = mesyl phosphoramidate linkage; e = 2'-O-(2-methoxyethyl) (MOE); [5mC] = 5-methylcytosine; d = 2'-deoxy (DNA)
MEASURED METRIC: APOE RNA (% control) Spinal Cord
Value expressed in % control; do not type the unit.

# input I'd like to know its APOE RNA (% control) Spinal Cord. The substance in question is 1693085: 6-10-4 MOE gapmer TTGGTGAATCTTTATTAAAC, linkages ssssszzzsssszzsssss (eT*eT*eG*eG*eT*eG[ms]dA[ms]dA[ms]dT*d[5mC]*dT*dT*dT[ms]dA[ms]dT*dT*eA*eA*eA*e[5mC]) [compound 1693085]
# output 71

# input I'd like to know its APOE RNA (% control) Spinal Cord. The substance in question is 1693074: 5-10-5 MOE gapmer ACTTGGTGAATCTTTATTAA, linkages ssosssszzzzzsssssss (eA*e[5mC]*eTeT*eG*dG*dT*dG[ms]dA[ms]dA[ms]dT[ms]d[5mC][ms]dT*dT*dT*eA*eT*eT*eA*eA) [compound 1693074]
# output 71

# input I'd like to know its APOE RNA (% control) Spinal Cord. The substance in question is 1693047: 5-10-5 MOE gapmer CTTGGTGAATCTTTATTAAA, linkages sssoszzzzssssszosss (antisense e[5mC]*eT*eT*eGeG*dT[ms]dG[ms]dA[ms]dA[ms]dT*d[5mC]*dT*dT*dT*dA[ms]eTeT*eA*eA*eA) [compound 1693047]
# output 71

# input I'd like to know its APOE RNA (% control) Spinal Cord. The substance in question is 1693139: 6-10-4 MOE gapmer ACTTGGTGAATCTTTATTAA, linkages ssssssszzzssssszsss (eA*e[5mC]*eT*eT*eG*eG*dT*dG[ms]dA[ms]dA[ms]dT*d[5mC]*dT*dT*dT*dA[ms]eT*eT*eA*eA) [compound 1693139]
# output 97

---

system: human APOE RNA; experiment: Dose-dependent reduction of human APOE RNA in HepG2 cells, electroporation, 20,000 cells per well, average of GAPDH- and PPIA-normalized results (Example 4, Table 12); type: cell-based; conditions: 82 nM, HepG2, 20,000 cells per well
Strand notation (5' to 3'): a small letter for the sugar, then the base; units joined by * are phosphorothioate-linked, units joined directly phosphodiester-linked; [ ] holds rarer units or linkages, { } end groups; capitals alone tell only the bases. [ms] = mesyl phosphoramidate linkage; e = 2'-O-(2-methoxyethyl) (MOE); k = constrained ethyl (cEt); [5mC] = 5-methylcytosine; d = 2'-deoxy (DNA)
MEASURED METRIC: APOE RNA (% UTC)
Value expressed in % UTC; do not type the unit.

# input I'd like to know its APOE RNA (% UTC). The substance in question is 1778111: modified oligonucleotide complementary to human APOE RNA (eA*e[5mC]eTeTeG*kG*dT*dG[ms]dA[ms]dA*dT*d[5mC]*dT*dT*dT*dA[ms]eTeT*eA*eA; antisense) [compound 1778111]
# output 77

# input I'd like to know its APOE RNA (% UTC). The substance in question is 1746809 (k[5mC]*dT[ms]kT*dG[ms]kG*dT[ms]dG[ms]dA[ms]dA[ms]dT*d[5mC]*dT*dT*dT*dA[ms]dT*dT[ms]kA*kA*kA; antisense) [Compound 1746809]
# output 72

# input I'd like to know its APOE RNA (% UTC). The substance in question is 1757575 (eA*e[5mC]eTeT*kG*kG*dT*dG[ms]dA[ms]dA[ms]dT*d[5mC]*dT*dT*dT*dA[ms]kT*eT*eA*eA; antisense) [Compound 1757575]
# output 81

---

Would you kindly list APOE RNA (% control) Spinal Cord for each of these substances?
test system: human APOE RNA; test: Duration of action study in APOE C57BL/6NTac-Apoeem7250 knock-in mice (Example 18); format: in vivo; conditions: spinal cord; 300 μg ICV; 112 days post-dose
Strand notation (5' to 3'): a small letter for the sugar, then the base; units joined by * are phosphorothioate-linked, units joined directly phosphodiester-linked; [ ] holds rarer units or linkages, { } end groups; capitals alone tell only the bases. [ms] = mesyl phosphoramidate linkage; e = 2'-O-(2-methoxyethyl) (MOE); k = constrained ethyl (cEt); [5mC] = 5-methylcytosine; d = 2'-deoxy (DNA)
Value expressed in % control; do not type the unit.

# input I'd like to know its APOE RNA (% control) Spinal Cord. The substance in question is 1809636 (kA*e[5mC]eTeT*eG*kG*dT*dG[ms]dA[ms]dA[ms]dT*d[5mC]*dT*dT*dT*dA[ms]kT*kT*eA*kA; antisense) [Compound 1809636]
# output 13

# input I'd like to know its APOE RNA (% control) Spinal Cord. The substance in question is 1810064: mixed MOE/cEt gapmer CTTGGTGAATCTTTATTAAAC, sugar eeeeekddddddddddeeeee, linkages ssoooszzzssssszsooss (e[5mC]*eT*eTeGeGkT*dG[ms]dA[ms]dA[ms]dT*d[5mC]*dT*dT*dT*dA[ms]dT*eTeAeA*eA*e[5mC]) [compound 1810064]
# output 31

# input I'd like to know its APOE RNA (% control) Spinal Cord. The substance in question is TezTeoGeoGksTdsGdzAdzAdzTds^mCdsTdsTdsTdsAdzTksTksAesAesAes^mCe (antisense eT[ms]eTeGkG*dT*dG[ms]dA[ms]dA[ms]dT*d[5mC]*dT*dT*dT*dA[ms]kT*kT*eA*eA*eA*e[5mC]) [Compound No. 1809814]
# output 39

# input I'd like to know its APOE RNA (% control) Spinal Cord. The substance in question is 1809637 (kA*e[5mC]eTeT*eG*kG*dT*dG[ms]dA[ms]dA[ms]dT*d[5mC]*dT*dT*dT*dA[ms]kT*kT*kA*kA; antisense) [Compound 1809637]
# output 17
